- assay_target: human Insulin-like Growth Factor 1 Receptor (IGF1R), IGF1R (gene 3480) (UniProt P08069)
- Sequence (P08069 whole entry, looked up): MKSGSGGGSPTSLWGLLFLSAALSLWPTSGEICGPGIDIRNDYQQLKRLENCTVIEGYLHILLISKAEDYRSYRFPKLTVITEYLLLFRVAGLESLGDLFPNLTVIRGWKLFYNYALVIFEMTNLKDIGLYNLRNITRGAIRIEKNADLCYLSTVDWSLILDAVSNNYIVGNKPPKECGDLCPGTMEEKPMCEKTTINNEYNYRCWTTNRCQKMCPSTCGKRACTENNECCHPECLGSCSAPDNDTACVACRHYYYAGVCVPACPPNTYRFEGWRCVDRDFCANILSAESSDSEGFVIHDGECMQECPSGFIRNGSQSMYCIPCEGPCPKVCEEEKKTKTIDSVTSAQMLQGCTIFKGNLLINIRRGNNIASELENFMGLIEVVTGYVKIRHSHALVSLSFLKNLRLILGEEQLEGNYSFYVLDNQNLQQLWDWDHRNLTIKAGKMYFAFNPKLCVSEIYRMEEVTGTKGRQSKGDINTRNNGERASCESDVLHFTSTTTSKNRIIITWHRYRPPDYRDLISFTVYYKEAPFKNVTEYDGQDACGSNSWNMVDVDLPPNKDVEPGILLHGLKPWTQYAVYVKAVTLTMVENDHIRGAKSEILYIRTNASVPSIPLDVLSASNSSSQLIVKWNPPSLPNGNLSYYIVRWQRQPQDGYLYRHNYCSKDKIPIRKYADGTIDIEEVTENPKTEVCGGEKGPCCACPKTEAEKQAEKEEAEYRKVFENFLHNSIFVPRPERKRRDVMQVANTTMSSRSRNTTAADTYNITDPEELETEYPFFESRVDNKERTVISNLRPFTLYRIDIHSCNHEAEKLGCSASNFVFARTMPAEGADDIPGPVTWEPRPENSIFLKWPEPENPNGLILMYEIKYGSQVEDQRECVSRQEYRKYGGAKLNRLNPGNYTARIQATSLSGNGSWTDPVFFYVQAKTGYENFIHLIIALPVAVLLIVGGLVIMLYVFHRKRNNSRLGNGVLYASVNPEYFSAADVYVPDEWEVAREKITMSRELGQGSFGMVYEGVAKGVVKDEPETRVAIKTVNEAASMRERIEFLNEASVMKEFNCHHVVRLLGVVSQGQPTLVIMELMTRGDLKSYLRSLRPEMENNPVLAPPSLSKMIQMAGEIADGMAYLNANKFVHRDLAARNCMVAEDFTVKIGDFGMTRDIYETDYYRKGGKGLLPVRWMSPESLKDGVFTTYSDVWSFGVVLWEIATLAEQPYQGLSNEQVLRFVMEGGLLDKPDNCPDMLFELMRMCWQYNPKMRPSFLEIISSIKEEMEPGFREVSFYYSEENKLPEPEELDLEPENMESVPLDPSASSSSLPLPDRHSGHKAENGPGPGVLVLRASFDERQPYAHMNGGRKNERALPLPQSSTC
- assay_info: NVS_ENZ_hIGF1R: NovaScreen (NVS) Enzymatic Assay for human Insulin-like Growth Factor 1 Receptor (IGF1R)
Results filed as inconclusive are left out. The source made the active and inactive calls. How the source made its calls: active means hit-call score of the fitted dose curve at least 0.9, where 1 is the maximum; inconclusive means response in the unintended direction; inactive means score below 0.9.
Bench note: report the call from Yes = active, No = inactive

Query: Write down the call the test reported for this compound. Item: CN(C)[C@@H]1C(=O)C(C(N)=O)=C(O)[C@@]2(O)C(=O)C3=C(O)c4c(O)cccc4[C@@](C)(O)[C@H]3[C@H](O)[C@@H]12
Result: Yes

Query: Hi team, can someone confirm the assay call for O=C(N[C@H]1CN2CCC1CC2)c1ccc2c(c1)OCCO2 ?
Result: No

Query: What did this assay record as the result for CC(C)(C)c1cc(O)ccc1O ?
Result: No

Query: Returns: the outcome recorded for CCC1(c2ccccc2)C(=O)N=C(O)NC1=O (centres undefined) in this assay.
Result: No
